Biological target: hGYS1 enzyme (recombinant hGYS1/GN1 protein) (Homo sapiens (Human), UniProt P13807)
Sequence (P13807 whole entry): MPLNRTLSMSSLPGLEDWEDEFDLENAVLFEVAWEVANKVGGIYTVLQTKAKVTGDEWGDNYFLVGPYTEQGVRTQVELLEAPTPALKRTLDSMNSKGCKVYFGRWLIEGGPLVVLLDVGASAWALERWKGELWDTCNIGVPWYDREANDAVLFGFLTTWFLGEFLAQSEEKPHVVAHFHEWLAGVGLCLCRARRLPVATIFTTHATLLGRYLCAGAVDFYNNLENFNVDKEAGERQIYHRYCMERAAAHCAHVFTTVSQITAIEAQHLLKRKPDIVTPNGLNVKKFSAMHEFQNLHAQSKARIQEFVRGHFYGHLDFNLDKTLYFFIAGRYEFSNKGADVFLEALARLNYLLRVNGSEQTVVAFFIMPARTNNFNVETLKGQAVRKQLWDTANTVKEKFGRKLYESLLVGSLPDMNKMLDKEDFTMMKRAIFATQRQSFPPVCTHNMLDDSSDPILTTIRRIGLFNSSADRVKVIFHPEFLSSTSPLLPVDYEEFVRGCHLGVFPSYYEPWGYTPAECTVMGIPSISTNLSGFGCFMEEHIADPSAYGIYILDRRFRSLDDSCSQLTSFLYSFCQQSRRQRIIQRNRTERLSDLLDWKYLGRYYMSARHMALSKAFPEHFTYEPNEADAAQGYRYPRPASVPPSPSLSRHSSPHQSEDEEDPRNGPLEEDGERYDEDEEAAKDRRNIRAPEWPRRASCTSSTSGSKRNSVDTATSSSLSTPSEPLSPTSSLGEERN
Sequence (P46976 whole entry partner): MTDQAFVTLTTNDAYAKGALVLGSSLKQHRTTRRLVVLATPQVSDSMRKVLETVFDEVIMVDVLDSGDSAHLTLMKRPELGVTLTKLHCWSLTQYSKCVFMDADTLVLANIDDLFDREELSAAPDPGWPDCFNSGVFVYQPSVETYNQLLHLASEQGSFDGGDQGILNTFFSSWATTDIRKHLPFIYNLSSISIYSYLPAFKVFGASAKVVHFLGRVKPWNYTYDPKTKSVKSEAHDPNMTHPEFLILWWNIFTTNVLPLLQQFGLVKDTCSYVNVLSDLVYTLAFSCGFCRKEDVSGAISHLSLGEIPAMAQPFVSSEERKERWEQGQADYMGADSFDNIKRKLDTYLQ
Assay: GYS1 coupled enzyme assay (PK/LDH)
Format: biochemical
Conditions: hGYS1/GN1 50 nM, UDP-Glucose 0.8 mM, G6P 1 mM; geometric mean of at least 2 runs
EXPERIMENTAL_ENDPOINT: IC50 (nM)

Known results for molecules:
Prompt line: Given the entry CC(C)c1ccc([C@@H](NC(=O)[C@@H]2C[C@@H](F)CN2C(=O)Cc2cnn[nH]2)c2ccccc2)cc1F , what IC50 was observed with hGYS1 enzyme (recombinant hGYS1/GN1 protein) (Homo sapiens (Human), UniProt P13807)?
Response line: 20

Prompt line: Given the entry Cc1cc(C(F)F)nn1CC(=O)N1C[C@H](F)C[C@H]1C(=O)N[C@@H](c1ccccc1)c1ccc(C(C)C)c(F)n1 , what IC50 was observed with hGYS1 enzyme (recombinant hGYS1/GN1 protein) (Homo sapiens (Human), UniProt P13807)?
Response line: 17

Prompt line: Given the entry CC(C)c1ccc([C@@H](NC(=O)[C@@H]2C[C@@H](F)CN2C(=O)Cn2cccn2)c2ccccc2)nc1F , what IC50 was observed with hGYS1 enzyme (recombinant hGYS1/GN1 protein) (Homo sapiens (Human), UniProt P13807)?
Response line: 11

Prompt line: Given the entry CC(C)c1cnc(C(NC(=O)[C@@H]2C[C@@H](F)CN2C(=O)Cc2cnn[nH]2)c2ccccc2)cc1C(F)F (single isomer, unassigned) , what IC50 was observed with hGYS1 enzyme (recombinant hGYS1/GN1 protein) (Homo sapiens (Human), UniProt P13807)?
Response line: 1130

Prompt line: Given the entry Cc1cn(CC(=O)N2C[C@H](F)C[C@H]2C(=O)N[C@@H](c2ccccc2)c2ccc(C3CC3)c(F)c2)cn1 , what IC50 was observed with hGYS1 enzyme (recombinant hGYS1/GN1 protein) (Homo sapiens (Human), UniProt P13807)?
Response line: 91

P = O=C(N[C@@H](c1ccccc1)c1ccc(C2CC(F)(F)C2)c(F)c1)[C@@H]1C[C@@H](F)CN1C(=O)Cc1ncco1
Q = CC(C)(C)c1ccc(C(NC(=O)[C@@H]2C[C@@H](F)CN2C(=O)Cc2cnn[nH]2)c2ccccc2)nc1 (single isomer, unassigned)
R = CCn1c(=O)ccn(CC(=O)N2C[C@H](F)C[C@H]2C(=O)N[C@@H](c2ccccc2)c2ccc(C3CC(F)(F)C3)c(F)n2)c1=O
Prompt line: Please list the entries, largest IC50 first. Lab note: record answer as labels in requested order.
Response line: Q, P, R
(Q: 547 nM, P: 82 nM, R: 4 nM)

P = CC(C)c1ccc([C@@H](NC(=O)[C@@H]2C[C@@H](F)CN2C(=O)Cc2n[nH]c(=O)[nH]2)c2ccccc2)nc1
Q = CC(=O)N1C[C@@H]2CC[C@H]1C(C(=O)N1C[C@H](F)C[C@H]1C(=O)N[C@@H](c1ccccc1)c1ccc(C(C)C)cc1)C2 (stereo partly shown)
Prompt line: Select one: P or Q . Criterion: greater recorded IC50. Reply briefly: the label of your chosen item.
Response line: Q

A = Cc1coc(CC(=O)N2C[C@H](F)C[C@H]2C(=O)N[C@@H](c2ccccc2)c2ccc(C(C)C)cn2)n1
B = CC(C)c1ccc([C@@H](NC(=O)[C@@H]2C[C@@H](F)CN2C(=O)Cc2ccc3ncnn3c2)c2ccccc2)cc1F
Prompt line: Select one: A or B . Criterion: greater recorded IC50. Reply briefly: the label of your chosen item.
Response line: A

###

Biological target: hGYS2 enzyme (recombinant hGYS2/GN1 protein) (Homo sapiens (Human))
Test: GYS2 coupled enzyme assay (PK/LDH)
Conditions: geometric mean of at least 2 assay runs on separate days, read-out: Avg_IC50
pIC50: −log10 of the molar value.
# pIC50 annotations

Known results for compounds:
Prompt line: Value lookup for pIC50; key = CC1(c2ccc([C@@H](NC(=O)[C@@H]3C[C@@H](F)CN3C(=O)CN3CC(=O)NCC3=O)c3ccccc3)cc2F)CC1
Response line: < 4.00

Prompt line: Value lookup for pIC50; key = O=C(NC(c1ccccc1)c1cc(F)c(C2CC2)c(F)c1)[C@@H]1C[C@@H](F)CN1C(=O)Cc1ncco1 (single isomer, unassigned)
Response line: < 4.00

Prompt line: Value lookup for pIC50; key = CC(C)c1ccc([C@@H](NC(=O)[C@@H]2C[C@@H](F)CN2C(=O)Cc2cnnn2C)c2ccccc2)cc1 (stereo in doubt)
Response line: < 4.00

Prompt line: Value lookup for pIC50; key = CC(C)c1ccc([C@@H](NC(=O)[C@@H]2C[C@@H](F)CN2C(=O)CNc2ncco2)c2ccccc2)cc1
Response line: < 4.00

Prompt line: Value lookup for pIC50; key = CC(C)c1ccc([C@@H](NC(=O)[C@@H]2C[C@@H](F)CN2C(=O)CCCc2ccncc2)c2ccccc2)cc1
Response line: < 4.00

New cases:
Prompt line: Value lookup for pIC50; key = CC(C)c1ccc([C@@H](NC(=O)[C@@H]2C[C@@H](F)CN2C(=O)C2CCNC(=O)C2)c2ccccc2)cc1 (stereo partly drawn)
Response line: < 4.00

###

Target: hGYS2 enzyme (recombinant hGYS2/GN1 protein) (Homo sapiens (Human), UniProt P54840)
Sequence (P54840 whole entry, one chain of several): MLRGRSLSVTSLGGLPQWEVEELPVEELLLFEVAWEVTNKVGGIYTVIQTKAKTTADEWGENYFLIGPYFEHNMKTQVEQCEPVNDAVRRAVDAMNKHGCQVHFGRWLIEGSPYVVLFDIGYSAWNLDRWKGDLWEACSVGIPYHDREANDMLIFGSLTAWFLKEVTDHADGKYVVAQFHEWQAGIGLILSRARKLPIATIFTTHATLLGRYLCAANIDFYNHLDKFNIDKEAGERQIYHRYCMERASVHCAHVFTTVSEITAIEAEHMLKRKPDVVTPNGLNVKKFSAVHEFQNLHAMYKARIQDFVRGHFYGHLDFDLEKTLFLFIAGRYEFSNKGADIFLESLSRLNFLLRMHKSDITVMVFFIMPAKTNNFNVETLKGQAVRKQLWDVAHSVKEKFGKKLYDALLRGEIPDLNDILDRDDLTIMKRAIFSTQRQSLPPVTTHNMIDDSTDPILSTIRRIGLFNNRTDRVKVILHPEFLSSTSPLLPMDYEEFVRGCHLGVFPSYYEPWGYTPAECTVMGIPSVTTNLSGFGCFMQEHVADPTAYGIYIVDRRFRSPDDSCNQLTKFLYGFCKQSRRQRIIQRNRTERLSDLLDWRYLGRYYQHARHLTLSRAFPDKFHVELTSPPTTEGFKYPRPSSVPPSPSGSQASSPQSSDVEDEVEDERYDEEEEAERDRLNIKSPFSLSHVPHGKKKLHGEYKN
Assay: GYS2 coupled enzyme assay (PK/LDH)
Conditions: geometric mean of at least 2 assay runs on separate days, read-out: Avg_IC50
pIC50: −log10 of the molar value.
EXPERIMENTAL_ENDPOINT: pIC50

Prompt line: Given the entry CC(C)c1ccc([C@@H](NC(=O)[C@@H]2C[C@@H](F)CN2C(=O)CS(C)(=O)=O)c2ccccc2)cc1 , what pIC50 was observed with hGYS2 enzyme (recombinant hGYS2/GN1 protein) (Homo sapiens (Human), UniProt P54840)?
Response line: < 4.00

New cases:
Prompt line: Given the entry CC(C)c1ccc([C@@H](NC(=O)[C@@H]2C[C@@H](F)CN2C(=O)Cn2cc(N(C)C)nn2)c2ccccc2)nc1F , what pIC50 was observed with hGYS2 enzyme (recombinant hGYS2/GN1 protein) (Homo sapiens (Human), UniProt P54840)?
Response line: < 4.00

Prompt line: Given the entry CC(C(=O)N1C[C@H](F)C[C@H]1C(=O)N[C@@H](c1ccccc1)c1ccc(C2CC2)c(F)c1)n1cnc2ccccc21 (single isomer, unassigned) [Compound 810] , what pIC50 was observed with hGYS2 enzyme (recombinant hGYS2/GN1 protein) (Homo sapiens (Human), UniProt P54840)?
Response line: < 4.00

###

Molecular target: hGYS1 enzyme (recombinant hGYS1/GN1 protein) (Homo sapiens (Human), UniProt P13807)
Test: GYS1 coupled enzyme assay (PK/LDH)
Conditions: hGYS1/GN1 50 nM, UDP-Glucose 0.8 mM, G6P 1 mM; geometric mean of at least 2 runs
pIC50: −log10 of the molar value.
EXPERIMENTAL_ENDPOINT: pIC50

Known results for molecules:
Prompt line: Value lookup for pIC50; key = CC(C)c1ccc([C@@H](NC(=O)[C@@H]2C[C@@H](F)[C@H](C)N2C(=O)Cc2cnn[nH]2)c2ccccc2)cc1F
Response line: 7.74

Prompt line: Value lookup for pIC50; key = CC(C)c1ccc([C@@H](NC(=O)[C@@H]2C[C@@H](F)CN2C(=O)Cc2cc[nH]n2)c2ccccc2)cc1 [Compound 19]
Response line: 7.33

Prompt line: Value lookup for pIC50; key = CC(C)c1cnc(C(NC(=O)[C@@H]2C[C@@H](F)CN2C(=O)Cc2cnn[nH]2)c2ccccc2)cc1F (single isomer, unassigned)
Response line: 6.77

Prompt line: Value lookup for pIC50; key = O=C(N[C@@H](c1ccccc1)c1ccc(C2CC(F)(F)C2)c(F)c1)[C@@H]1C[C@@H](F)CN1C(=O)Cc1cnn[nH]1
Response line: 7.57

P = CC(C)c1ccc([C@@H](NC(=O)[C@@H]2C[C@@H](F)CN2C(=O)Cc2cc[nH]n2)c2ccccc2)cc1 (stereo in doubt) [Compound 225]
Q = O=C(N[C@@H](c1ccccc1)c1ccc(C2CC(F)(F)C2)c(F)n1)[C@@H]1C[C@@H](F)CN1C(=O)Cn1cnc2ccccc21
Prompt line: Select one: P or Q . Criterion: greater recorded pIC50. Reply briefly: the label of your chosen item.
Response line: Q

###

Biological target: hGYS1 enzyme (recombinant hGYS1/GN1 protein) (Homo sapiens (Human))
Assay: GYS1 coupled enzyme assay (PK/LDH)
Conditions: hGYS1/GN1 50 nM, UDP-Glucose 0.8 mM, G6P 1 mM; geometric mean of at least 2 runs
pIC50: −log10 of the molar value.
EXPERIMENTAL_ENDPOINT: pIC50

Prompt line: Value lookup for pIC50; key = CC(C(=O)N1C[C@H](F)C[C@H]1C(=O)N[C@@H](c1ccccc1)c1ccc(C2(C)CC2)c(F)n1)n1cnc2ccccc21 (single isomer, unassigned) [Compound 586]
Response line: 8.00

I = CC(C)c1ccc([C@@H](NC(=O)[C@@H]2C[C@@H](F)CN2C(=O)Cn2ncc(N3CC(F)(F)C3)n2)c2ccccc2)nc1F
II = CN1CCN(CC(=O)N2C[C@H](F)C[C@H]2C(=O)N[C@@H](c2ccccc2)c2ccc(C3CC3)c(F)c2)C1=O
III = CN1C(=O)C(CC(=O)N2C[C@H](F)C[C@H]2C(=O)N[C@@H](c2ccccc2)c2ccc(C3(C)CC3)c(F)n2)c2ccccc21 (stereo partly shown)
IV = CC(C)c1ccc([C@@H](NC(=O)[C@@H]2C[C@@H](F)CN2C(=O)C(O)c2cnn[nH]2)c2ccccc2)cc1F (single isomer, unassigned) [Compound 774]
V = Cc1cnc(CC(=O)N2C[C@H](F)C[C@H]2C(=O)N[C@@H](c2ccccc2)c2ccc(C3CC3)c(F)n2)o1
Prompt line: Sort entries by pIC50 from minimum to maximum value. Lab note: record answer as labels in requested order.
Response line: II, III, V, IV, I

P = Cc1cc([C@@H](NC(=O)[C@@H]2C[C@@H](F)CN2C(=O)Cc2cnn[nH]2)c2ccccc2)ccc1C(C)C
Q = CC(C)c1ccc(C(NC(=O)[C@@H]2C[C@@H](F)CN2C(=O)Cc2cnn[nH]2)c2ccc(N)nc2)cc1F (single isomer, unassigned)
Prompt line: // pick min by pIC50: P , Q Reply briefly: the label of your chosen item.
Response line: Q
(Q: 6.85, P: 7.15)

I = CC(=O)N1CCCO[C@@H](C(=O)N2C[C@H](F)C[C@H]2C(=O)N[C@@H](c2ccccc2)c2ccc(C(C)C)cc2)C1
II = CC(C)c1ccc([C@@H](NC(=O)[C@@H]2C[C@@H](F)CN2C(=O)Cn2nncc2N2CCC2)c2ccccc2)nc1F
III = Cn1c(CC(=O)N2C[C@H](F)C[C@H]2C(=O)N[C@@H](c2ccccc2)c2ccc(C3(C)CC3)c(F)c2)cc2ccccc21
Prompt line: Please list the entries, largest pIC50 first. Lab note: record answer as labels in requested order.
Response line: II, III, I
(II: 7.92, III: 7.44, I: 7.15)
